Task for the reader: assign each of the following binders its reported pKd.
- measuredTarget: T1, Tau409-426 pS422 peptide (human)
- T1 chain: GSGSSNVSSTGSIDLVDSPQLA
- protocolText: SPR
Numbers only, as −log10 of the molar value.

Worked cases, pKd given:
Ab4 (antibody, V domains shown) VH: QVQLVQSGAEVKKPGASVKVSCKASGFTFTRYWMHWVKERPGQGLEWMGNINPNNGGTDFNEKFKNRVTMTVHKSTSTVFIQLSSLRSEDTAVYYCARGTGTGAMDYWGQGTSVTVSS VL: DIVMTQSPLSLSVTPGQPASISCRSSQSLVHNNGITYLYWYLQKPGQSPQLLIYRVSNRFSGVPDRFSGSGSGTDFTLKISRVEAEDVGVYYCFQGTHVPRTFGQGTKVEIK : 10.44
Ab11 (antibody, V domains shown) VH: QVQLVQSGAEVKKPGASVKVSCKASGFTFTRYWMHWVKERPGQGLEWMGNINPNNGGTDFNEKFKNRVTMTVHKSTSTVFIQLSSLRSEDTAVYYCARGTGTGAMDYWGQGTSVTVSS VL: DVVMTQSPLSLPVTLGQPASISCRSSQSLVHNNGITYLYWYQQRPGQSPRLLIYRVSNRFSGVPDRFSGSGSGTDFTLKISRVEAEDVGVYYCFQGTHVPRTFGQGTKLEIK : 10.39
Ab9 (antibody, V domains shown) VH: EVQLVQSGAEVKKPGSSVKVSCKASGFTFTRYWMHWVKERPGHGLEWIGNINPNNGGTDFNEKFKNRVTMTVHKSITTAYMELSRLTSDDSAVYYCARGTGTGAMDYWGQGTLVSVSS VL: DIVMTQSPLSLSVTPGQPASISCRSSQSLVHNNGITYLYWYLQKPGQSPQLLIYRVSNRFSGVPDRFSGSGSGTDFTLKISRVEAEDVGVYYCFQGTHVPRTFGQGTKVEIK : 10.12
Ab2 (antibody, V domains shown) VH: QVQLVESGAEVKKPGASVKVSCKASGFTFTRYWMHWVKERPGHGLEWMGNINPNNGGTDFNEKFKNRVTITVHKSASTAYMELSSLRSEDTAVYYCARGTGTGAMDYWGQGTTVTVSS VL: DVVMTQSPLSLPVTLGQPASISCRSSQSLVHNNGITYLYWYQQRPGQSPRLLIYRVSNRFSGVPDRFSGSGSGTDFTLKISRVEAEDVGVYYCFQGTHVPRTFGQGTKLEIK : 10.41
Ab5 (antibody, V domains shown) VH: QVQLVQSGAEVKKPGASVKVSCKASGFTFTRYWMHWVKERPGQGLEWMGNINPNNGGTDFNEKFKNRVTMTVHKSTSTVFIQLSSLRSEDTAVYYCARGTGTGAMDYWGQGTSVTVSS VL: DIVMTQTPLSSPVTLGQPASISCRSSQSLVHNNGITYLYWYQQRPGQPPRLLIYRVSNRFSGVPDRFSGSGAGTDFTLKINRVEAEDVGVYFCFQGTHVPRTFGQGTKLEIK : 10.53

Dear colleague, could you send me pKd for each of the items below? Thanks.
1. Ab7 (antibody, V domains shown) VH: QVQLVQSGAEVKKPGASVKVSCKASGFTFTRYWMHWVRERPGHGLEWIGNINPNNGGTDFNEKFKNRVTMTVHKSISTAYMELSSLRSDDSAVYYCARGTGTGAMDYWGQGTLVTVSS VL: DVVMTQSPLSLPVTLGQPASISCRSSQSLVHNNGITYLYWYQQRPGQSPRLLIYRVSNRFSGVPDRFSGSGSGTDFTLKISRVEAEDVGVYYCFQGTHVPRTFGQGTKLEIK
2. Ab10 (antibody, V domains shown) VH: EVQLVQSGAEVKKPGSSVKVSCKASGFTFTRYWMHWVKERPGHGLEWIGNINPNNGGTDFNEKFKNRVTMTVHKSITTAYMELSRLTSDDSAVYYCARGTGTGAMDYWGQGTLVSVSS VL: DIVMTQTPLSSPVTLGQPASISCRSSQSLVHNNGITYLYWYQQRPGQPPRLLIYRVSNRFSGVPDRFSGSGAGTDFTLKINRVEAEDVGVYFCFQGTHVPRTFGQGTKLEIK
3. Ab6 (antibody, V domains shown) VH: QVQLVESGAEVKKPGASVKVSCKASGFTFTRYWMHWVKERPGHGLEWMGNINPNNGGTDFNEKFKNRVTITVHKSASTAYMELSSLRSEDTAVYYCARGTGTGAMDYWGQGTTVTVSS VL: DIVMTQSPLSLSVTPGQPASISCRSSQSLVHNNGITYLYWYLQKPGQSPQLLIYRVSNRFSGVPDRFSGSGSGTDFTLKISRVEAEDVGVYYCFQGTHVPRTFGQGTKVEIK
4. Ab1 (antibody, V domains shown) VH: QVQLVQSGAEVKKSGASVKVSCKASGFTFTRYWMHWVRQAPGQGLEWIGNINPNNGGTDFNEKFKNRVTLIRDTSTTTVFIQLTSLTSEDSAVYYCARGTGTGAMDYWGQGTLVTVSS VL: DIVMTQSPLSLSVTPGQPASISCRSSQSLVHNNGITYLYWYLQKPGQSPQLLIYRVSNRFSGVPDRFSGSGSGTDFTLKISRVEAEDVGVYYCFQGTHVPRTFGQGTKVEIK
5. Ab3 (antibody, V domains shown) VH: EVQLVQSGAEVKKPGSSVKVSCKASGFTFTRYWMHWVKERPGHGLEWIGNINPNNGGTDFNEKFKNRVTMTVHKSITTAYMELSRLTSDDSAVYYCARGTGTGAMDYWGQGTLVSVSS VL: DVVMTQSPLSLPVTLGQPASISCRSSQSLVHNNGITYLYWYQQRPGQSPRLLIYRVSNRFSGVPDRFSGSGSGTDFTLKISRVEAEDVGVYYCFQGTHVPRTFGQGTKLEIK
6. Ab8 (antibody, V domains shown) VH: QVQLVQSGAEVKKSGASVKVSCKASGFTFTRYWMHWVRQAPGQGLEWIGNINPNNGGTDFNEKFKNRVTLIRDTSTTTVFIQLTSLTSEDSAVYYCARGTGTGAMDYWGQGTLVTVSS VL: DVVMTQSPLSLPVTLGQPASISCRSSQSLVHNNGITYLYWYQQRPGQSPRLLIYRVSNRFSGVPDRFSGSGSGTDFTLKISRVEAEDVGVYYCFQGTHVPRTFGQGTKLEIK

OUTPUT:
[10.40, 10.36, 10.40, 10.39, 10.34, 10.27]

Data credit: patent US20260356924
